# assaySummary: yeast display, Sf9 membrane polyspecificity reagent, FACS + sequencing; frameworks hold sequencing errors

- itemSequence: "QVQLVESGGGLVQAGGSLRLICAASGLTFFRNAMGWYRQAPGKEREFVAGITSTDGSTYYADSVKGRFTISRDNAKNTVYLQMNSLKPEDTAVYYCAAAYRVRGRTYDSWGQGTQVTVSS"
  polyreactivity (PSR sort gate): "high polyreactivity"
- itemSequence: "QVQLVESGGGLVQAGGSLRLSCAASGITIRLSALGGYRQAPGNERELVAAITSGGSTYADSVKGRFTISRDNAKNTVYLQMNSLKPEDTAVYYCNAEALVNGGYDYWGQGTQVTVSS"
  polyreactivity (PSR sort gate): "high polyreactivity"
- itemSequence: "QVQLVESGGRLVQAGGSLRLSCAASGFTFVEYAMGWYRQAPGKERELVAANSRSGSTYYADSVKGRFTISRDNSKNTVYLQMNSLKPEDTAVYYCATLVYRKQYSRYDYWGQGTQVTVSS"
  polyreactivity (PSR sort gate): "high polyreactivity"
- itemSequence: "QVQLVESGGGLVQAGGSLRLSCAASGFIFLPYAMGWARQAPGKERELVAAITRGGRTYYADSVKGRFTISRDNAKNTVYLQMNSLKPEDTAVYYCAATTYLVWGYNYWGQGTQVTVSS"
  polyreactivity (PSR sort gate): "low polyreactivity"
- itemSequence: "QVQLVESGGGVVQAGGSLRLSCAASGYIYLVYAMGWYRQATGKETELVAAISSGGSTYYADSVKGRFTISRDNAKNTVYLQMNSLKPEDTSVYYCATAGLALYAFRDDYWGQGTQVTVSS"
  polyreactivity (PSR sort gate): "low polyreactivity"
- itemSequence: "QVQLVESGGGLVQAGGSLRLSCAASGFIFKRYAMGWYRQAPGKERELVAAITGSGSRTYYADSVKGRFTISRDNAKNTVYLQMNSLKPEDTAVYYCNKDRRPTADFGYWGQGTQVTVSS"
  polyreactivity (PSR sort gate): "high polyreactivity"
- itemSequence: "QVQLVESGGGLVQAGGSLSLSCAASGSTFAYYAMGWYREAPGQERELVAGITWTGGSTYYADSVKGRFTISRDNAKNSVYLQMNSLKPEDTAVYYCAADRYFYEGDYWGQVTQVTVSS"
  polyreactivity (PSR sort gate): "low polyreactivity"
- itemSequence: "QVQLVESGGGLVQAGGSLRLSCASSGITLYGYAMGWYRQAPGKEREFVAAISRSGDRTYYADSVKGRFTISRDNAMNTVYLQMNSLKPEDTAVYYCNAWRYDYWGQGTQVTVSS"
  polyreactivity (PSR sort gate): "high polyreactivity"
- itemSequence: "QVQLVESGGGLVQAGGSLRLSCAASGSILEPYAMGWYRQAPGKERELVATIRRGGSTYYADSVKGRFTISRDNAKNTVYLQMNSLKPEDTAVYYCAADRSVQVTFDYWGQGTQVTVSS"
  polyreactivity (PSR sort gate): "low polyreactivity"
- itemSequence: "QVQLVESGGGIVQAGGSLRLSCAASGFIFVLYAMGWYRQAPGKERELVASISSTGSTYYADSVKGRFTISRENAKNTVYLQMNSLIPEDTAVYYCNLFVFDPEDFWGEGTQVTVSS"
  polyreactivity (PSR sort gate): "low polyreactivity"
- itemSequence: "QVQLQESGGGLVQAGGSLRLRCAASGTISDRAGMGWYRQAPAKNAIVATIDRGTNTNYADSVKGRFTISRDNAKNTVYLQMNSLKPEDTAVYNCAADGRYYIYLDYWGQGTQVTVSS"
  polyreactivity (PSR sort gate): "low polyreactivity"
- itemSequence: "QVQLVESGGGLVQAGGSLRLSCAASGFIFGGYAMGWYRQAPGKERELVAAISRSGGSTYYADSVKGRFTISRDNAKNTVDLQINSLKPEDTAVYYCYAVTRRQGFNYWGQGTQVTVSS"
  polyreactivity (PSR sort gate): "high polyreactivity"
- itemSequence: "QVQLVESGGGLVQAGGSLRLSCAASGGTFHLNAMGWYRQAPRKEREFVASISWSGGSTYYADSVKGRFTISRDNAKNTVYLQMNCLKPEDTAVYYCARRKYYRQGGRTKGYDYWGQGTQVTVSS"
  polyreactivity (PSR sort gate): "high polyreactivity"

---

# assaySummary: yeast display, Sf9 membrane polyspecificity reagent, FACS + sequencing; frameworks hold sequencing errors
reportedMetric: polyreactivity (PSR sort gate)

- itemSequence: "QVQLVESGGGLVQAGGSLRLSCAASGYTFRYYVMGWYRQAPGKERELDAAISQRGGSTYYADSVKGRFTISRDNAKNTVYLQMNSLKPEDTAVYYCAASYSTYASRGYGYWGQGTQVTVSS"
  result: "high polyreactivity"
- itemSequence: "QVQLVESGGGLVQPGGSLRLSCAASGSTFDWYAMAWYRQAPGKQRELVAAISSDDSTYYADSVKGRFTISRDNAKNTVYLQMNSLKPEETAVYYCAFDVYSDYGDYGFWGQGTQVTVSS"
  result: "low polyreactivity"
- itemSequence: "QVQLVESGGGLVQAGGSLRLSCAASGSIFTWNAMGWYRQAPGKERELVAAISWIGDSTYYADSVKGRFTISRDNAKNTVYLQMNSLKPEDTAVYYCAAEYAQGSRELESWGQGTQVTVSS"
  result: "low polyreactivity"
- itemSequence: "QVQLVESGGGLVQAGGSLRLSCAASGSTLVGYAMGWYRQAPGKERELVAAISSSGTSTYYADSVKGRFSISRDNAKNTVYLQMNSLKPEDTAVYYCSARQRGTYGYWGQGTQVTVSS"
  result: "high polyreactivity"

---

# assaySummary: yeast display, Sf9 membrane polyspecificity reagent, FACS + sequencing; frameworks hold sequencing errors
reportedMetric: polyreactivity (PSR sort gate)

- itemSequence: "QVQLEESGGGLYQAGGSLRLSCAASGSILDFNAMVWYRQAPGKEMELVASIRWSGGSTYYADSVKGRFTISRDYAKNTVYFQMNSLKPEDTAVYYCAAVTYGYYRSRYSSIQPNEYDYLGQGTQVTVSS"
  reportedMetric: "polyreactivity (PSR sort gate)"
  result: "high polyreactivity"
- itemSequence: "QVQLVESGGGLVQAGGSLRLSCAASGRLFNYNAMGWYRQAPGKERELVASITVSRGSTYYADSVKGRFTISRDNATNTVYLQMYSLKPEDTAVYNCAADYGSKLDYGYWGQGTQVTVSS"
  reportedMetric: "polyreactivity (PSR sort gate)"
  result: "low polyreactivity"
- itemSequence: "QVQLVESGGGLVQAGGSLRLSCAASGGIFYVNAMGWYRQAPGKERELVAAITSDGVSTYYADSVKGRFTISRDNAKNTVYLQMNSLKPEDTAVYYCAARFQYYRKYDYWGQGTQVTVSS"
  reportedMetric: "polyreactivity (PSR sort gate)"
  result: "low polyreactivity"
- itemSequence: "QVQLVESGGGLVQAGGSLRLSCAASGFTFRGNAMGWYRQAPGKERELVATISRGGNTNYADSVKGRFTISRDNAKNTVYLLMNSLKPEDTAVYYFAAVSYIRSKVSYNYWGNGTQVTVSS"
  reportedMetric: "polyreactivity (PSR sort gate)"
  result: "low polyreactivity"
- itemSequence: "QVQLVDSGGGLVQAGGSLGLSCAASGSIVKYYAMGWYRQAPGKEREVVAAISSIGGRPYYADSVKGRFTISRDNAKNTVYLQRNSLKPEDTSVFYCARRFRRTGESEYEYWGQGTQVTVSS"
  reportedMetric: "polyreactivity (PSR sort gate)"
  result: "high polyreactivity"
- itemSequence: "QVQLVESGGGLVQAGGSLRLSCAASGFTFVINDMGWYRQAPGKERELVADITSGGDKYYADSVKGRFTISRDNAKNTVYLQMISLKPEDTAVYYCARDNERDYYTYPYDYWGQGTQVTVSS"
  reportedMetric: "polyreactivity (PSR sort gate)"
  result: "low polyreactivity"
- itemSequence: "QVQLVESGGGLVQAGGSLRLSCAASGSIFPRYAMGWYRQAPGKERELVAAITGSGSSTYYADSVKGRFTISRDNAKNTVYLQMNSLKPEDTAVYYCAARKARPPCPHPFDYYWGEGTQVTVSS"
  reportedMetric: "polyreactivity (PSR sort gate)"
  result: "low polyreactivity"
- itemSequence: "QVQLGESGGGLVQAGGSLRLSCAASGSTFIDYAMGWYRQAPGKERELVAAITNGGNTKYADSVKGRFTISRDNAKNTVYLQMNSLKPEDTAVYYCAKYYYTSIVGYDSWGQGTQVTVSS"
  reportedMetric: "polyreactivity (PSR sort gate)"
  result: "low polyreactivity"
- itemSequence: "QVQLVESGGGLVQAGGSLRLSCAASGLIFKTYAIGWYRLAPGNERELVAAISWSGGGNTYYADSVKGRFTISRDNAKNTVYLQMNSLKPEDTAVYYCNAPRFVSYDYWGQGTQVTVSS"
  reportedMetric: "polyreactivity (PSR sort gate)"
  result: "high polyreactivity"
- itemSequence: "QVQLVESGGGLVQAGGSLRLSCAASGYIVRNAMGWYRQAPGKERELVAAISRRGGSTYYADSVKGRFTISRDNAKNTVYLQMNSLKPEDTAVYYCAKDKVIPSFDADYYYWGQGTQVTVSS"
  reportedMetric: "polyreactivity (PSR sort gate)"
  result: "high polyreactivity"
- itemSequence: "QVQLVESGGGLVQAGGSLRLSCADSGSTFRYYVMGWYRQAPGKERELVARITSAASTNYADSVKGRFTISRDNAKNTVYLQMNSLKPEDTAVYYCAARKYGSRYRLKYDYWGQGTQVTVSS"
  reportedMetric: "polyreactivity (PSR sort gate)"
  result: "high polyreactivity"
- itemSequence: "QVQLVESGGGLVQAGGSLRLSCAASGSILWLYVMGWYRQAPGKERELVATITSSGGSTYYADSVKGRFTISRDNAKNTVYLQKNSLKPEDTAVYYSAAQTYNSYDYWGQATQVTVSS"
  reportedMetric: "polyreactivity (PSR sort gate)"
  result: "low polyreactivity"
- itemSequence: "QVQLVESGGGLVQAGGSLRLSCAASGIIFVQYAMGWYRQAPGKERELVAGITRRGGSTYYADSVKGRFTISRDNAKNTVYLQMNSLKTEDTAVFYCAATRPGDVLYRNEYWGQGTQVTVSS"
  reportedMetric: "polyreactivity (PSR sort gate)"
  result: "high polyreactivity"
- itemSequence: "QVQLVESGGGLVQAGGRLRLSCAASGSIFRIYTMGWYRQEPGKERELVAAINSGGSTNYADSVKGRFTISRDNAKNTVYLQMNSLKPEDTAVYYCAATWWQYDQGLHRYDYWGQGTQVTVSS"
  reportedMetric: "polyreactivity (PSR sort gate)"
  result: "high polyreactivity"
- itemSequence: "QVQLVESGGGLVQAGGSLRLSCAASGFIFKGYAMGWYRQAPGKERELVAAISSGGSTNYADSVKGRFTISRDNAKNTVYLQMNSLKPEDTAVYYCAAGRYIRHYWYGYWGQGTQVTVSS"
  reportedMetric: "polyreactivity (PSR sort gate)"
  result: "high polyreactivity"
